tested on: SK-MEL-2; test: NCI tumour cell line growth inhibition, 48 h
Activity calls are given as the source filed them. Rule as the data show it: active = GI50 up to about 1.1 µM and inactive = higher.
RESULT TYPE: GI50

COMPOUND	GI50
CO/C(N)=C(C#N)/N=C/c1cccnc1	> 100 µM (inactive)
CCOC(=O)Cc1csc(Nc2ccc(OCC)cc2)n1	> 100 µM (inactive)
COc1cc2c3c(cc(Cl)nc3c1OC)C(O)(CC(C)=O)C(=O)N2 (configuration not stated)	20.3 µM (inactive)
CC(C)(C)C#CI1OC(=O)c2ccccc21	10.7 µM (inactive)
NNC(=S)N/N=C(/C(=O)Nc1cc(Cl)ccc1Cl)C1C(=O)Nc2ccccc2[S+]1[O-] (configuration not stated)	> 100 µM (inactive)
COc1ccc(NC(S)=Nc2ccccc2)cc1	> 100 µM (inactive)

# input for lookup
Item CCN(CC)CC1CN=C(N)O1 (configuration not stated) has what recorded GI50?
> 100 µM (inactive)

###

Kindly supply the reported GI50 values for the records listed here.
test system: NCI/ADR-RES; assay: NCI tumour cell line growth inhibition, 48 h
Calls of active or inactive are those of the source. Cut-off read from the data, not from the text of the source: active = GI50 up to about 1.1 µM and inactive = higher.

Would you please look over these solved cases?
COMPOUND	GI50
COc1ccc(OC)c2c1C=C[C@H](C1(C)SCCS1)C2C(C)=O (some centres not stated)	32.2 µM (inactive)
CN1CCC2(c3ccccc3)CC(=O)/C(=C/c3ccc(Cl)c(Cl)c3)C1C2.[O-][Cl+3]([O-])([O-])O (configuration not stated)	2.78 µM (inactive)
Nn1c(Cc2ccccc2)n[nH]c1=O	> 100 µM (inactive)
CN(C)Cc1cc(C(=O)/C=C/c2cccc(Cl)c2)cc(CN(C)C)c1O	18.5 µM (inactive)
CN(C)C=C1C(=O)c2c(Br)sc(Br)c2C1=O	26.1 µM (inactive)
CC(C)[Si](OC12CCC(CC1O)CC2C(=O)O)(C(C)C)C(C)C (configuration not stated)	13.2 µM (inactive)
COc1ccc(NC(=S)C#N)cc1	> 100 µM (inactive)
Cc1c2cccc-2c(OCCO)cc2c1[nH]c1ccccc12	3.03 µM (inactive)
O=C(O)CN1CCNCCN(CC(=O)O)CCNCC1	> 100 µM (inactive)
COc1ccc(C2CC(c3ccc4ccccc4c3O)=NN2)cc1OC (configuration not stated)	32.7 µM (inactive)

Give GI50 for all compounds that follow.
1. CC(=O)c1c(O)c(C)c(O)c(Cc2c(O)c3c(c(C(=O)/C=C/c4ccccc4)c2O)OC(C)(C)C=C3)c1O
2. Nc1ncc(Cc2nc3ccccc3s2)s1

1: 2.53 µM (inactive); 2: 91.6 µM (inactive)

###

Kindly supply the reported GI50 values for the records listed here.
tested on: U-251; experiment: NCI tumour cell line growth inhibition, 48 h
Calls of active or inactive are those of the source. Cut-off read from the data, not from the text of the source: active = GI50 up to about 1.1 µM and inactive = higher.

Would you please look over these solved cases?
COMPOUND	GI50
CC(=O)Nc1ccc(C(=O)NN2C(=O)C(Cl)C2c2ccc(Cl)cc2)cc1 (stereo unspecified)	23.9 µM (inactive)
Cc1cc2cc(Cl)ccc2nc1C(=O)c1ccccc1	> 100 µM (inactive)
CC(C)[Si](OC12CCC(CC1O)CC2C(=O)O)(C(C)C)C(C)C (stereo unspecified)	14.6 µM (inactive)
O=C(/C=C/c1ccccc1)c1ccc(Cl)cc1Cl	19.6 µM (inactive)
Cn1c(=O)c2c(nc(Cc3ccccc3)n2CC(=O)O)n(C)c1=O	> 100 µM (inactive)

Request body: readout GI50, system U-251, query C=C1CC(c2ccc(O)c(OC)c2)Oc2c(OC)cccc21 (stereo unspecified) . Return the value.
30.7 µM (inactive)

###

tested on: UO-31; assay: NCI tumour cell line growth inhibition, 48 h
Active and inactive are the calls of the source. Cut-off read from the data, not from the text of the source: active = GI50 up to about 1.1 µM and inactive = higher.
RESULT TYPE: GI50

Would you please look over these solved cases?
MOLECULE	GI50
CC(C)(C)C1=CC(C)(n2[nH]c(=O)n(-c3ccccc3)c2=O)C=C(C(C)(C)C)C1=O	44.9 µM (inactive)
C=C(C)C(=O)O[C@H]1[C@H]2[C@H](OC(=O)[C@H]2C)[C@H](O)[C@@H](C)[C@@H]2C=CC(=O)[C@]21C	3.94 µM (inactive)
NC(=O)c1ccc(S(=O)(=NS(=O)(=O)c2ccccc2)c2ccc(C(N)=O)cc2)cc1	> 100 µM (inactive)
Cc1c(CCl)c(=O)oc2c(C)c3occ(CCl)c(=O)c3cc12	17.5 µM (inactive)
CCC(C)OC(=O)/C(Br)=C1/OC(=O)c2ccccc2-c2ccccc21 (stereo not drawn)	25.2 µM (inactive)

Give GI50 for all molecules that follow.
1. NC1=CN(CCCO)C2=N/C(=C\c3ccco3)C(=O)N12
2. CN(C)CCCNC(=O)CCNC(=O)c1cc(NC(=O)c2cc(NC(=O)c3cc(NC(=O)c4nc(NC(=O)CCCNC(=O)c5cc(NC(=O)c6cc(NC(=O)c7cc(NC(=O)c8nccn8C)cn7C)cn6C)cn5C)cn4C)cn3C)cn2C)cn1C
3. Cc1[nH]nc(-c2ccon2)c1N=O

["94 µM (inactive)", "> 100 µM (inactive)", "19.8 µM (inactive)"]

###

tested on: SF-295; experiment: NCI tumour cell line growth inhibition, 48 h
Activity calls are given as the source filed them. Rule as the data show it: active = GI50 up to about 1.1 µM and inactive = higher.
Hi there, use one of these labels in your reply, thanks! active, inactive

Sample answers from the record:
COMPOUND	CLASS
CCC1(OC(=O)CNC)C(=O)OCc2c1cc1n(c2=O)Cc2cc3ccccc3nc2-1 (stereo unspecified)	active
NC1=CN(CCCO)C2=N/C(=C\c3ccco3)C(=O)N12	inactive
O=C(/C=C/c1c(O)ccc2ccccc12)c1ccccc1	inactive
Cc1noc(C)c1CCCOC1COc2ccccc2OCCOCCOc2ccccc2OC1	inactive
O=C(O)CCC(=O)N1C/C(=C\c2ccccc2)C(=O)/C(=C/c2ccccc2)C1	inactive
COC(=O)c1onc(-c2c(OC)cc(OC)cc2OC)c1C(=O)OC	inactive
CCOC(=O)C(=O)Nc1ccccc1CC	inactive
CCCCC/C=C1\CCC(CN(C)C)C1=O (stereo unspecified)	inactive
CC(C)(C)C1=CC(C)(n2[nH]c(=O)n(-c3ccccc3)c2=O)C=C(C(C)(C)C)C1=O	inactive
CCN(CC)CC1CN=C(N)O1 (stereo unspecified)	inactive

# outcome recorded in this test, key = CN(C)c1ccc(/C=C(\NC(=O)c2ccccc2)C(=O)Nc2ccccc2C(=O)NCc2ccccc2)cc1
inactive

###

tested on: ACHN; test: NCI tumour cell line growth inhibition, 48 h
The source made the active and inactive calls. No stated cut-off is given here; in the data, active = GI50 up to about 1.1 µM and inactive = higher.
Kindly supply the reported GI50 values for the records listed here.

Give GI50 for all molecules that follow.
1. COC(=O)C1C=NNC1C(=O)OC (stereo unspecified)
2. C=CCN1C(=O)/C(=C/c2ccc(C)cc2)NC1=S
3. CC(C)(C)OC1=C(OC(C)(C)C)C(O)(c2ccc(Cl)cc2)C1=O (stereo unspecified)

["> 100 µM (inactive)", "> 100 µM (inactive)", "> 100 µM (inactive)"]

###

test system: HOP-92; assay: NCI tumour cell line growth inhibition, 48 h
The source made the active and inactive calls. No stated cut-off is given here; in the data, active = GI50 up to about 1.1 µM and inactive = higher.
Kindly supply the reported GI50 values for the records listed here.

Would you please look over these solved cases?
COMPOUND	RESULT
Nc1nc(Cl)c(C=O)c(NCC2(CO)CCC2)n1	15.3 µM (inactive)
COc1ccc(C2(Cl)C(Cl)(C(F)(F)F)C2(Cl)C(F)(F)F)cc1 (stereo unspecified)	13.9 µM (inactive)

Give GI50 for all compounds that follow.
1. CCCCCCCCCCCC(=O)OCCOCCOCCOCCOCCOC(=O)CCCCCCCCCCC
2. CCN(CC)c1ccc2cc(C(N)=O)/c(=N/c3ccc(F)cc3)oc2c1
3. CN(C(=O)c1ccccc1)C1CCCC(=O)CC1 (stereo unspecified)
4. CC1=NN(c2nc(N)nc(CN3CCOCC3)n2)C(C)(C)C1

1. > 100 µM (inactive)
2. 18.7 µM (inactive)
3. > 100 µM (inactive)
4. 33.2 µM (inactive)

###

Kindly supply the reported GI50 values for the records listed here.
system: SF-268; assay: NCI tumour cell line growth inhibition, 48 h
Active and inactive are the calls of the source. No stated cut-off is given here; in the data, active = GI50 up to about 1.1 µM and inactive = higher.

MOLECULE	GI50
CCNC1=C(NC(=O)c2ccc(OC)cc2)C(=O)c2ccccc2C1=O	> 100 µM (inactive)
CCOP(=O)(OCC)C1C(CO)OC(n2ccc(=O)[nH]c2=O)C1O (stereo unspecified)	> 100 µM (inactive)
CC(C(=O)COCc1ccccc1)P1(=O)OC(C)(C)CN1C(C)(C)C (stereo unspecified)	> 100 µM (inactive)
NC(Cc1nnn[nH]1)C(=O)O (stereo unspecified)	> 100 µM (inactive)
BrCC[N+]12CCCN1CCC2	24.9 µM (inactive)

# input for lookup
Request body: readout GI50, system SF-268, query N#Cc1ccnc(C(=O)N2CCCC2C(=O)O)c1 (stereo unspecified) . Return the value.
> 100 µM (inactive)

###

system: SK-OV-3; assay: NCI tumour cell line growth inhibition, 48 h
The source made the active and inactive calls. No stated cut-off is given here; in the data, active = GI50 up to about 1.1 µM and inactive = higher.
Hi there, use one of these labels in your reply, thanks! active, inactive

COMPOUND	ASSAY SYSTEM	CLASS
COc1ccc(C(=O)N2c3ccccc3N(C)n3cccc3C2CC(=O)O)cc1 (centres undefined)	SK-OV-3	inactive

# outcome recorded in this test, key = COC(=O)C(C(=O)C(=O)Nc1c(Cl)cc([N+](=O)[O-])cc1Cl)c1nc2cc(C)c(C)cc2nc1O (centres undefined)
inactive

# outcome recorded in this test, key = C1CC2=C(C1)C1=S(S2)SC2=C1CCC2
inactive

# outcome recorded in this test, key = O=c1cc(N2CCOCC2)n2c(ccc3ccccc32)n1
inactive

# outcome recorded in this test, key = C[N+](C)(C)CC(=O)N/N=C(\Cc1nc2ccc([N+](=O)[O-])cc2nc1O)C(=O)Nc1nc2ccc([N+](=O)[O-])cc2s1
inactive

# outcome recorded in this test, key = CCc1cccc(C)c1NC(=O)CC1Sc2ccccc2NC1=O (centres undefined)
inactive

# outcome recorded in this test, key = CC1(C)C[C@H]2C=C(C=O)[C@]34C[C@]3(C(=O)OC4O)[C@H]2C1 (some centres undefined)
inactive
